Provenance of the data: patent US9012446B2

- Test system: Aβ40
- procedure-details: In vitro BACE cell-based assay (Aβ40 sandwich ELISA, cells stably expressing APP)
- conditions-used: Homo sapiens, HEK293, average IC50, cell assay, HEK cells
recorded-metric: IC50 (nM)

# smiles-input, recorded-metric, assay-value
data = [
    ("NC1=N[C@@]2(COC1)c1cc(-c3cccnc3F)ccc1Oc1c(F)cc(N3CC[C@@H](F)C3)cc12", "IC50", 101),
    ("NC1=N[C@@]2(COC1)c1cc(-c3cncnc3)ccc1Oc1c(F)cc(C3=CCCOC3)cc12", "IC50", 0.4),
    ("NC1=N[C@@]2(COC1)c1cc(-c3cccnc3F)ccc1Oc1c(F)cc(N3CCC(F)(F)CC3)cc12", "IC50", 2.6),
    ("NC1=N[C@@]2(CCO1)c1cc(-c3cccnc3)ccc1Oc1c(F)cc(C3=CCOCC3)cc12", "IC50", 4.2),
    ("NC1=N[C@@]2(CCO1)c1cc(-c3cncc(F)c3)ccc1Oc1cnc(-c3cncc(F)c3)cc12", "IC50", 4.2),
]

A. NC1=N[C@@]2(CCO1)c1cc(-c3cncc(F)c3)ccc1Oc1cnc(-c3cccnc3)cc12
B. NC1=N[C@@]2(COC1)c1cc(-c3cc(Cl)ccc3F)ccc1Oc1ncc(N3CC4CCC(C3)O4)cc12
C. CC(C)(C)C#Cc1cc2c(cn1)Oc1ccc(-c3cccnc3F)cc1[C@@]21CCOC(N)=N1
D. NC1=N[C@]2(CCO1)c1cc(-c3cccnc3)ccc1Oc1c(F)cc(C3=CCCOC3)cc12
E. NC1=N[C@@]2(COC1)c1cc(-c3cncc(F)c3)ccc1Oc1cnc(N3CCC(F)(F)C3)cc12
Exam item: Kindly order the items shown according to IC50, from the highest value down. Answer by writing out the labels in the requested order.
Marked response: D, C, A, B, E
(D: 71.3 nM, C: 5 nM, A: 3.4 nM, B: 1.3 nM, E: 0.3 nM)

====

- System: Aβ40
- procedure-details: In vitro BACE cell-based assay (Aβ40 sandwich ELISA, cells stably expressing APP)
- conditions-used: Homo sapiens, HEK293, average IC50; read-out: HEK cell assay
pIC50: −log10 of the molar value.
recorded-metric: pIC50

Below are worked cases with known answers.
# molecule, measured-target, pIC50
records = [
    ("NC1=N[C@]2(CCS1)c1cc(-c3cccnc3F)ccc1Oc1cnc(C3=CCOCC3)cc12", "Aβ40", 6.03),
    ("NC1=N[C@]2(CCO1)c1cc(-c3cccnc3)ccc1Oc1c2cc(-c2ccnc(F)c2)nc1F", "Aβ40", 6.69),
    ("CC(C)(C)COc1cc2c(c(F)n1)Oc1ccc(-c3cccnc3F)cc1[C@@]21COCC(N)=N1", "Aβ40", 8.55),
]

P. NC1=N[C@]2(CCO1)c1cc(-c3cccnc3F)ccc1Oc1c(F)cc(N3CCC(F)(F)CC3)cc12
Q. NC1=N[C@]2(CCS1)c1cc(-c3cccnc3F)ccc1Oc1c(F)cc(C3=CCCOC3)cc12
R. NC1=N[C@@]2(CCO1)c1cc(-c3cccnc3F)ccc1Oc1ncc(C3=CCOCC3)cc12
Exam item: # ascending order, key=pIC50 Answer by writing out the labels in the requested order.
Marked response: P, Q, R

P. NC1=N[C@]2(CCO1)c1cc(-c3cccnc3F)ccc1Oc1c(F)cc(N3CCOCC3)cc12
Q. NC1=N[C@]2(CO[C@H]1C1CCCCC1)c1cc(-c3cccnc3F)ccc1Oc1cnc(Cl)cc12 (racemic) [Example 56B]
R. NC1=N[C@@]2(COC1)c1cc(-c3cncc(F)c3)ccc1Oc1cnc(Cl)cc12
Exam item: Kindly order the items shown according to pIC50, from the highest value down. Answer by writing out the labels in the requested order.
Marked response: R, Q, P

P. NC1=N[C@]2(CCO1)c1cc(-c3cccnc3F)ccc1Oc1c2cc(C2=CCCOC2)nc1F
Q. NC1=N[C@@]2(CCO1)c1cc(-c3cccnc3F)ccc1Oc1c(F)cc(N3CCOCC3)cc12
Exam item: Just curious, which one has the larger pIC50 reading, P or Q ? # reply format: chosen label
Marked response: Q
